- Tested system: T1, TBD-21 (HC F108A)
- T1 construct: anti-TROP2 Fab, CDR3 HC alanine mutant
- T1 sequence (VH, as listed by the source, chain 1 of 2): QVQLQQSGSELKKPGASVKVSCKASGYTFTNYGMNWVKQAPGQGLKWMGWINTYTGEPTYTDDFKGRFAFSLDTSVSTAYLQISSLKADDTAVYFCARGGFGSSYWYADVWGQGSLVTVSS
- T1 sequence (VL, as listed by the source, chain 2 of 2): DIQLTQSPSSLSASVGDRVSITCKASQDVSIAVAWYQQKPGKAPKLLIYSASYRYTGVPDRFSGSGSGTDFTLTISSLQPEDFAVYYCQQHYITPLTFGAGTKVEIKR
- Assay text: competition ELISA, Fab on captured TROP2
Measured quantity: IC50
Write the numeric value and follow it with the unit.

Worked examples follow.
INSERT INTO results (binder, observed_measurement) VALUES
  ('VDFCALYNWPVCAI (mask peptide for the TROP2 Fab) [Peptide-59]', '9.64 µM'),
  ('VDFCALYHWPVCGL (mask peptide for the TROP2 Fab) [Peptide-61]', '7.75 µM'),
  ('IDFCLLYKWPVCEL (mask peptide for the TROP2 Fab) [Peptide-49]', '8.67 µM'),
  ('IDFCRVYDWPVCSL (mask peptide for the TROP2 Fab) [Peptide-53]', '22.7 µM'),
  ('VDFCYMYKWPVCYP (mask peptide for the TROP2 Fab) [Peptide-48]', '75.2 µM'),
  ('VDFCYKYNWPICSR (mask peptide for the TROP2 Fab) [Peptide-55]', '16.8 µM');

Next binder, IC50 to be filled in.
Exercise: Give me measured IC50, please, for this binder: VDFCNLYHWPICAI (mask peptide for the TROP2 Fab) [Peptide-60]
Solution: 5.45 µM

meta.source: patent US20230357429A1
